System Tested: T1, human NPR1 expressed on CHO-K1 cells (human, UniProt P16066 33-1061)
T1 construct: also called hNPR1 CHO K1; human NPR1 expressing CHO-K1 cells
T1 sequence: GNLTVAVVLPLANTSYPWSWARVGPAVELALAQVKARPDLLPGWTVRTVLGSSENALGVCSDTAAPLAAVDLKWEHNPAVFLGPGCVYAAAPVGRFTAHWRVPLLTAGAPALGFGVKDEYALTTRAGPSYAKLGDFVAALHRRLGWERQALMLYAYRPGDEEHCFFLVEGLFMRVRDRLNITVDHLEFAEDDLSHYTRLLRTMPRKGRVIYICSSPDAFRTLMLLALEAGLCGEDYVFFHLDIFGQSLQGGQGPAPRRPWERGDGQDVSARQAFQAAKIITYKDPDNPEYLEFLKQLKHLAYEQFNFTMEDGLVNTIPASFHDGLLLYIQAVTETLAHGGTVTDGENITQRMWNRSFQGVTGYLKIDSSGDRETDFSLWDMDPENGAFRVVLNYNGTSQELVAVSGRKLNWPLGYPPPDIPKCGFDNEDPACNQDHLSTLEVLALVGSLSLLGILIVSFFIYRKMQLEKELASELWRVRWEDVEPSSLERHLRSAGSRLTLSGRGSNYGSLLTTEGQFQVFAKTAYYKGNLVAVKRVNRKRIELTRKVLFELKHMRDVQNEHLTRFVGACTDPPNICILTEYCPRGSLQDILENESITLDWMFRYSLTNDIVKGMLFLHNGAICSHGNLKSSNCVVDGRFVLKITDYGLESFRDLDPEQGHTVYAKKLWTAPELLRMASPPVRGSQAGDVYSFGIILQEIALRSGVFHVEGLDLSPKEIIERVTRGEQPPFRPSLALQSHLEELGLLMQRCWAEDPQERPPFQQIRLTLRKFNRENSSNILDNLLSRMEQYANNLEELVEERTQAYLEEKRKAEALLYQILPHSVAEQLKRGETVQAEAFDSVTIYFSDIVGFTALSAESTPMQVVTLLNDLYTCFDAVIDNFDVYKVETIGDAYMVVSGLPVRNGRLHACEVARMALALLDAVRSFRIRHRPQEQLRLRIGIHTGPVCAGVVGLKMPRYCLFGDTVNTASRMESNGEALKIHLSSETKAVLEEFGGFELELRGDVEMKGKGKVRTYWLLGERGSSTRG
Assay Remarks: flow cytometry, 1 uM IgG
Quantity: flow cytometry S/BG (S/BG)
Write down the numeric answer in S/BG and omit the unit.

Guide cases for flow cytometry S/BG, answers given:
YY06 IgG (YY06_LALA) (antibody, V domains shown) VH: EVQLLESGGGLVQPGGSLRLSCAASGFTFSSYAISWVRQAPGKGLEWVSAISGSGGSTYYAESVKGRFTISRDNSKNTLYLQMNSLRAEDTAVYYCARPYLGDRRSYGFDHWGQGTLVTVSS VL: QSALTQPASVSGSPGQSITISCTGTSSDVGSYNLVSWYQQHPGKAPKLMIYEGSKRPSGVSNRFSGSKSGNTASLTISGLQAEDEADYYCSSYGFHIVVVVFGGGTKLTVLG :: 26
YY05 IgG (YY05_LALA) (antibody, V domains shown) VH: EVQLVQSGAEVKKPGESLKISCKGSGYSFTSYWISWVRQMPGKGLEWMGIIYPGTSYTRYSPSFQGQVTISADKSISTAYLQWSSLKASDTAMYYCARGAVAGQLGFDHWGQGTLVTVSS VL: QSVLTQPPSVSGAPGQRVTISCTGSSSNIGAGYDVHWYQQLPGTAPKLLIYGNSNRPSGVPDRFSGSKSGTSASLAITGLQAEDEADYYCQSYYTSSHGPVFGGGTKLTVLG :: 15
YY01 IgG (YY01_LALA) (antibody, V domains shown) VH: EVQLVESGGGLVQPGGSLRLSCAASGFTFSSYWISWVRQAPGKGLEWVANIKQSGSETYYVESVKGRFTISRDNAKNSLYLQMNSLRAEDTAVYYCARSLRRRSTEHAGFDVWGQGTLVTVSS VL: DIQMTQSPSSLSASVGDRVTITCRASQGISNYLAWYQQKPGKVPKLLIYAASTLQSGVPSRFSGSGSGTDFTLTISSLQPEDVATYYCQQADKFPYTFGQGTKVEIKR :: 35

Request: Which measured flow cytometry S/BG value corresponds to YY07 IgG (YY07_LALA) (antibody, V domains shown) VH: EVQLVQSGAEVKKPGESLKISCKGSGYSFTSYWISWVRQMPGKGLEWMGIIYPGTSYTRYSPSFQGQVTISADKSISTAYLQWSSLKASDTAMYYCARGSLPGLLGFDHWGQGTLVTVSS VL: QSVLTQPPSVSGAPGQRVTISCTGSSSNIGAGYDVHWYQQLPGTAPKLLIYGNSNRPNGVPDRFSGSKSGTSASLAITGLQAEDEADYYCQSYDSPTSSSVFGGGTKLTVLG ?
Result: 8
